Every entry's value here was drawn from PubChem BioAssay AID1963870.

The following molecules are shown together with reported viability, T/C values.
# System: 292921-168-R-J2-PDC KRAS tumor spheroid viability;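 further: drug exposure lasted seven days after spheroids formed for three days; percent of DMSO vehicle control viability which is 100%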
# assay summary: Anticancer human tumor 292921-168-R-J2-PDC patient-derived pancreatic carcinoma cell line growth inhibition [KRAS2]
# condition set: second compound 0.1 µM; first compound 3.16 µM; active compounds read low; spheroids with HUVEC and MSC

molecule	tgt	uom	viability, T/C
CC(C)NCC(C(=O)N1CCN(c2ncnc3c2C(C)CC3O)CC1)c1ccc(Cl)cc1 (stereo not given) + CC1OCC2(CCN(c3cnc(Sc4ccnc(N)c4Cl)c(N)n3)CC2)C1N	292921-168-R-J2-PDC KRAS tumor spheroid viability	%	58
COC(=O)c1ccc2c(C(=Nc3ccc(N(C)C(=O)CN4CCN(C)CC4)cc3)c3ccccc3)c(O)[nH]c2c1 + C=CC(=O)N1CCN(c2nc(=O)n(-c3c(C)ccnc3C(C)C)c3nc(-c4c(O)cccc4F)c(F)cc23)C(C)C1	292921-168-R-J2-PDC KRAS tumor spheroid viability	%	11.9
CC1(C)CCC(CN2CCN(c3ccc(C(=O)NS(=O)(=O)c4ccc(NCC5CCOCC5)c([N+](=O)[O-])c4)c(Oc4cnc5[nH]ccc5c4)c3)CC2)=C(c2ccc(Cl)cc2)C1 + CC1OCC2(CCN(c3cnc(Sc4ccnc(N)c4Cl)c(N)n3)CC2)C1N	292921-168-R-J2-PDC KRAS tumor spheroid viability	%	21.9
Cn1nccc1Nc1nccc(-c2cc3c(s2)C(C)(C)N(CCN2CCOCC2)C3=O)n1 + C=CC(=O)N1CCN(c2nc(OCC3CCCN3C)nc3c2CCN(c2cccc4cccc(C)c24)C3)CC1CC#N	292921-168-R-J2-PDC KRAS tumor spheroid viability	%	11.1
CC(=O)OC12COC1CC(O)C1(C)C(=O)C(O)C3=C(C)C(OC(=O)C(O)C(NC(=O)OC(C)(C)C)c4ccccc4)CC(O)(C(OC(=O)c4ccccc4)C21)C3(C)C (stereo not given) + COc1cc2nc(C)nc(NC(C)c3cc(N)cc(C(F)(F)F)c3)c2cc1OC1CCOC1	292921-168-R-J2-PDC KRAS tumor spheroid viability	%	19
